Test system: Human iPSC-derived cardiomyocytes
procedure_details: High-throughput cardiomyocyte beating assay
experimental_setup: general clustering analysis of concentration-response, 3 nM to 30 μM
quantity: effect on the beating rate / beat rate

# count of solved cases: 7
compound: CC(C)COCC(CN(Cc1ccccc1)c1ccccc1)N1CCCC1 (centres unmarked)
target: Human iPSC-derived cardiomyocytes
effect on the beating rate / beat rate: strongly inhibited

compound: COc1ccc([C@@H]2Sc3ccccc3N(CCN(C)C)C(=O)[C@@H]2OC(C)=O)cc1
target: Human iPSC-derived cardiomyocytes
effect on the beating rate / beat rate: strongly inhibited

compound: COc1ccc(CCN2CCC(Nc3nc4ccccc4n3Cc3ccc(F)cc3)CC2)cc1
target: Human iPSC-derived cardiomyocytes
effect on the beating rate / beat rate: strongly inhibited

compound: CCN(CC)CC(=O)Nc1c(C)cccc1C
target: Human iPSC-derived cardiomyocytes
effect on the beating rate / beat rate: little effect

compound: CC(C)N(CCC(C(N)=O)(c1ccccc1)c1ccccn1)C(C)C (centres unmarked) [disopyramide]
target: Human iPSC-derived cardiomyocytes
effect on the beating rate / beat rate: little effect

compound: COC(=O)C1=C(C)NC(C)=C(C(=O)OCCN(C)Cc2ccccc2)C1c1cccc([N+](=O)[O-])c1 (centres unmarked)
target: Human iPSC-derived cardiomyocytes
effect on the beating rate / beat rate: strongly inhibited

compound: CC(C)(C)c1ccc(C(O)CCCN2CCC(C(O)(c3ccccc3)c3ccccc3)CC2)cc1 (centres unmarked)
target: Human iPSC-derived cardiomyocytes
effect on the beating rate / beat rate: strongly inhibited

# input for lookup
Supply effect on the beating rate / beat rate measured with Human iPSC-derived cardiomyocytes for CC(=O)O.O=C(NCC1CCCCN1)c1cc(OCC(F)(F)F)ccc1OCC(F)(F)F (centres unmarked) [flecainid acetate] .
little effect
